- Experiment Summary: Toxicity in po dosed BALB/c mouse collagen antibody induced arthritis model assessed as tolerated dose
- Format: organism-based
- Protocol Conditions: in vivo
Can you tell me MTD for the items I'm about to list?

Data request: Look up MTD: C[C@@H]1/C=C\C(=O)[C@@H](O)[C@@H](O)C/C=C/c2cc(N(C)C)cc(O)c2C(=O)O[C@H]1C
Data returned: 60 mg/kg

Data request: Given the entry CCn1cnc2c3c(c(O)cc21)C(=O)O[C@@H](C)[C@H](C)/C=C\C(=O)[C@@H](O)[C@@H](O)C/C=C/3 , report its measured MTD.
Data returned: < 10 mg/kg

Data request: Data request, read-out MTD, for CNc1cc(O)c2c(c1)/C=C/C[C@H](O)[C@H](O)C(=O)/C=C\[C@@H](C)[C@H](C)OC2=O
Data returned: > 30 mg/kg

Data request: I'd like to know its MTD. The compound in question is CCNc1cc(O)c2c(c1)/C=C/C[C@H](O)[C@H](O)C(=O)/C=C\[C@@H](C)[C@H](C)OC2=O
Data returned: > 30 mg/kg

Data request: May I ask what MTD has been recorded for COc1ccc2c(c1)c(CC(=O)O)c(C)n2C(=O)c1ccc(Cl)cc1 ?
Data returned: 3 mg/kg

Data request: Value lookup for MTD; key = C[C@]12C=CC(=O)C=C1CC[C@@H]1[C@@H]2[C@@H](O)C[C@@]2(C)[C@H]1CC[C@]2(O)C(=O)CO
Data returned: 10 mg/kg

Data request: MTD for C[C@@H]1/C=C\C(=O)[C@@H](O)[C@@H](O)C/C=C/c2c(c(O)cc3c2ncn3C)C(=O)O[C@H]1C ?
Data returned: < 5 mg/kg

Data request: State the recorded MTD for this entry: Cc1nc2c3c(c(O)cc2n1C)C(=O)O[C@@H](C)[C@H](C)/C=C\C(=O)[C@@H](O)[C@@H](O)C/C=C/3
Data returned: < 10 mg/kg
